measuredTarget: CYP1A2 (Homo sapiens, UniProt P05177)
Sequence (P05177 whole entry): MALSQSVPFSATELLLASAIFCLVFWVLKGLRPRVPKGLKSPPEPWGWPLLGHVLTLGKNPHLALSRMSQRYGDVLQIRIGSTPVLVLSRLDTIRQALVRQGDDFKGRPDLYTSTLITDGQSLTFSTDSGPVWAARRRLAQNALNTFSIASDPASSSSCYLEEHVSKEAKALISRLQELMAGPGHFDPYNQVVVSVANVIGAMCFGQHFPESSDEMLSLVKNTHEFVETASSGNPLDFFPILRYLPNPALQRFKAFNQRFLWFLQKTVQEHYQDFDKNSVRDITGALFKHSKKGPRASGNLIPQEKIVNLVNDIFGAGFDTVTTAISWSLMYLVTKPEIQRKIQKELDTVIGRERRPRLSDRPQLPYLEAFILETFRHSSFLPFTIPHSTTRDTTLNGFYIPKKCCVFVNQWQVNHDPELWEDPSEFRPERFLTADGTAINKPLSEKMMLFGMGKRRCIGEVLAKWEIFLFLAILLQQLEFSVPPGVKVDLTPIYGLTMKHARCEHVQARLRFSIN
assaySummary: Inhibition of rCYP1A2 in microsomes from CYP450-overexpressing HEK293 cells
Assay type: in vitro ADME
experimentalConditions: IC50, rCYP1A2 microsomes; probe phenacetin
quantityKind: IC50
Write the numeric value and follow it with the unit.

**Query** Fill in: IC50 of C=C(C)[C@@H]1CCC(C)=C[C@H]1c1c(O)cc(CCCCC)cc1O [CBD, cannabidiol] is ___
**Result** 2100 nM

----------
measuredTarget: CYP2E1 (Homo sapiens)
Sequence (P05181 whole entry): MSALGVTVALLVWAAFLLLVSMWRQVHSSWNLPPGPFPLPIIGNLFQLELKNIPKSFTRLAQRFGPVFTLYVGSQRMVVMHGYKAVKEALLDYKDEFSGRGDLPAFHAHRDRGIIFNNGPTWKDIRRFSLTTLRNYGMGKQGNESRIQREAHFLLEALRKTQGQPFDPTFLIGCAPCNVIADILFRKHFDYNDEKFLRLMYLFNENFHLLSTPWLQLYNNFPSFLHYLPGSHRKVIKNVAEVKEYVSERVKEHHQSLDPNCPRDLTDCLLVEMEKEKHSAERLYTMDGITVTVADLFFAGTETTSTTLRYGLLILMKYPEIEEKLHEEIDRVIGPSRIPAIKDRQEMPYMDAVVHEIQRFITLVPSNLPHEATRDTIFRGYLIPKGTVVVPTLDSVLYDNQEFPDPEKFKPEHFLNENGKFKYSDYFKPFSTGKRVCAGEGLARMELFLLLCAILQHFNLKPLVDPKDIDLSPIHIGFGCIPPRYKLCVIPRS
assaySummary: Inhibition of CYP2E1 probe
Type: in vitro ADME
experimentalConditions: IC50,u, HLM; probe chlorzoxazone; corrected for fu,inc
quantityKind: pIC50
Please express pIC50 as -log10 of the molar concentration.

CCCCCc1cc(O)c2c(c1)OC(C)(C)c1ccc(C)cc1-2 [CBN, cannabinol]
6.24

**Query** Field request: pIC50 | item: C=C(C)[C@@H]1CCC(C)=C[C@H]1c1c(O)cc(CCCCC)cc1O [CBD, cannabidiol]
**Result** 6.85

----------
measuredTarget: CYP1A2 (Homo sapiens)
assaySummary: IC50 shift study
Assay type: in vitro ADME
experimentalConditions: IC50 (+), 30-min preincubation with NADPH
quantityKind: pIC50
Bear in mind: pIC50 is minus log10 of a mol/L concentration; give just that figure.

**Query** Suppose we examine the molecule C=C(C)[C@@H]1CCC(C)=C[C@H]1c1c(O)cc(CCCCC)cc1O ; what pIC50 value has been reported?
**Result** 5.74

----------
measuredTarget: UniProt P20813
Sequence (P20813 1-491): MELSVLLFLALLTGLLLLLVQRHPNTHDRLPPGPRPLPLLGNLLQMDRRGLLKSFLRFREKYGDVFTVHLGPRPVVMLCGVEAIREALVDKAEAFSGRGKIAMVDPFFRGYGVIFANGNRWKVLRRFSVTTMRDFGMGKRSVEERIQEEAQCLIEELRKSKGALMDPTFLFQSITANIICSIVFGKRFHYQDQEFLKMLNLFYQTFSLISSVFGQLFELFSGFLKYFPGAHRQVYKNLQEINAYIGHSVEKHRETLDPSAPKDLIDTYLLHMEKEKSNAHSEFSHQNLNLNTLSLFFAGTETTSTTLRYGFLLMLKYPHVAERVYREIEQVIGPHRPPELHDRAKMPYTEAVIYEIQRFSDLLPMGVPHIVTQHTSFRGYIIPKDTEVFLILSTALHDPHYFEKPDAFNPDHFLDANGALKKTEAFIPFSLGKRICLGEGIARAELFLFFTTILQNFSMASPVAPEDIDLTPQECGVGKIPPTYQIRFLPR
assaySummary: Inhibition of CYP2B6 probe
Assay type: in vitro ADME
experimentalConditions: IC50,u, HLM; probe bupropion; corrected for fu,inc
The following molecules are listed with their measured IC50 values.

C=C(C)[C@@H]1CCC(C)=C[C@H]1c1c(O)cc(CCCCC)cc1O [CBD, cannabidiol]
260 nM

Now for the molecule whose IC50 we want.
**Query** Give the measured IC50 of CCCCCc1cc(O)c2c(c1)OC(C)(C)c1ccc(C)cc1-2 [CBN, cannabinol] .
**Result** 880 nM

----------
measuredTarget: CYP2E1 (Homo sapiens)
assaySummary: Inhibition of CYP2E1 probe
Assay type: in vitro ADME
experimentalConditions: Ki, HLM; probe chlorzoxazone (CYP2E1)
Recorded Ki values for a group of molecules are listed next.
Write the number in nM without appending the unit.

CCCCCc1cc(O)c2c(c1)OC(C)(C)c1ccc(C)cc1-2 [CBN, cannabinol]
330

Then this molecule:
**Query** For the molecule shown here, C=C(C)[C@@H]1CCC(C)=C[C@H]1c1c(O)cc(CCCCC)cc1O [CBD, cannabidiol] , give the reported Ki.
**Result** 590
